Hello, the source for this data is the kinase profiling compilation of Christmann-Franck et al. (2016), in case you need it.

Catalogue of residual activity readings, one per entry.
study.target: RPS6KA4 KD2 (human)
experimental.details: radiometric filter-binding kinase assay, Kinase HotSpot
condition: compound 0.5 µM; ATP 10 µM
Could you give me the number in %? Just the number is fine.

{"columns": ["input.smiles", "residual activity, %"],
 "data": [
  ["CS(=O)(=O)CCNCc1ccc(-c2ccc3ncnc(Nc4ccc(OCc5cccc(F)c5)c(Cl)c4)c3c2)o1", 93.4],
  ["c1ccc2c(-c3ccncc3)c[nH]c2c1", 91],
  ["COc1cc2ncnc(Nc3ccc(OCc4ccccc4)cc3)c2cc1OC", 105],
  ["O=C1c2ccccc2-c2nc3nnnn3nc21", 72.2],
  ["CN(C)c1ccc(/C=C2\\C(=O)Nc3ccccc32)cc1", 95.2]
]}

Returns the measured residual activity for the input molecule. Input: `CO[C@@H]1[C@H](N(C)C(=O)c2ccccc2)C[C@H]2O[C@]1(C)n1c3ccccc3c3c4c(c5c6ccccc6n2c5c31)C(=O)NC4` 16.8

Then `Cn1c2ccccc2c2c3c(c4c5ccccc5n(CCC#N)c4c21)CNC3=O` ? 29.9

Then `C[C@@H]1CCN(C(=O)CC#N)C[C@@H]1N(C)c1ncnc2[nH]ccc12` ? 105

Then `Cc1nc(-c2ccccc2)c(-c2ccncc2)o1` ? 93.7

Then `O=C1C(Cl)=C(N2C(=O)CCC2=O)C(=O)c2ccccc21` ? 115
